Tested on: Staphylococcus epidermidis (1.4260)
Assay: Antimicrobial activity, broth microdilution MIC
Assay type: cell-based
Settings: modified CLSI broth microdilution, LB medium, 1 × 10^6 CFU/ml, 37 °C, 18 to 20 hours, absorbance 600 nm
Where no end group is shown, it is not given here.
Attribute: MIC S. epidermidis

Substance | Assay system | MIC S. epidermidis [µM]
AIGSILGRLAKGLPTLISWIKNR-NH2 [A(A8R)] | Staphylococcus epidermidis (1.4260) | 3.13
AIGSILGRLAKGLPTLKSWIKNR-NH2 [A(A8R, I17K)] | Staphylococcus epidermidis (1.4260) | 6.25
RIGSILGALAKGLPTLISWIKNR-NH2 [A(A1R)] | Staphylococcus epidermidis (1.4260) | 3.13
M(G1R, V8R, I17R): melittin analogue with residues at position 1, 8 and 17 replaced by positively charged residues (RIGAVLKRLTTGLPALRSWIKRKRQQ; not fully specified; ends and bridges not checked; UniProt P01501 44-69, looked up, variant G1R V8R I17R) | Staphylococcus epidermidis (1.4260) | 6.25
AIGSILGALAKGLPTLKSWIKNR-NH2 [A(I17K)] | Staphylococcus epidermidis (1.4260) | 12.5
RIGSILGRLAKGLPTLKSWIKNR-NH2 [A(A1R, A8R, I17K)] | Staphylococcus epidermidis (1.4260) | 6.25
RIGSILGALAKGLPTLKSWIKNR-NH2 [A(A1R, I17K)] | Staphylococcus epidermidis (1.4260) | 6.25
RIGSILGRLAKGLPTLISWIKNR-NH2 [A(A1R, A8R)] | Staphylococcus epidermidis (1.4260) | 3.13
AIGSILGALAKGLPTLRSWIKNR-NH2 [A(I17R)] | Staphylococcus epidermidis (1.4260) | 6.25
RIGSILGRLAKGLPTLRSWIKNR-NH2 [A(A1R, A8R, I17R)] | Staphylococcus epidermidis (1.4260) | 3.13
AIGSILGALAKGLPTLISWIKNR-NH2 [AR-23, reference compound] | Staphylococcus epidermidis (1.4260) | 3.13

Value source: paper PMC4897634
